Entry source: paper PMC7770833

- protocol_summary: In vivo PK study in C57BL/6 mice
- Design: species or system mouse
- condition_parameters: male, mouse, po, 10 mg/kg, plasma
measure_name: AUC at 4 h

Input line: Fill blank: measured AUC at 4 h of the compound CCCCCNC(=O)n1cc(-c2ccc(F)cc2C2CCN(C)CC2)oc1=O [Compound 32b] is ____.
Output line: 709 ng·h/mL

====

- protocol_summary: In vivo PK study in C57BL/6 mice
- Parameters: species or system mouse
- condition_parameters: male, mouse, plasma, iv, 3 mg/kg
measure_name: clearance at 4 h (mL/min/kg)
Give just the numeric value; mL/min/kg need not be written.

Input line: # input compound: CCCCCNC(=O)n1cc(-c2ccc(F)cc2C2CCN(C)CC2)oc1=O [Compound 32b] ; wanted: its clearance at 4 h
Output line: 72
